These data points were gathered from PubChem BioAssay.

Reported values of growth inhibition for individual entries
experimentNotes: inhibition of 3D7 malaria parasite growth – strain 3D7 (AID 2306);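 also: 0% = DMSO wells and 100% = chloroquine plus artemisinin control wells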
experimentalContext: P. falciparum 3D7 erythrocytic growth, LDH absorbance, 72 h; at 2 µM; stronger effect = higher value
Please respond with the number in % and leave the unit unwritten.

compound: CC[C@H]1CN2CC[C@H]1C[C@@H]2[C@@H](OC(=O)c1ccc(Cl)cc1)c1ccnc2ccc(OC)cc12
growth inhibition [%]: 89
--
compound: CC(Cc1ccc(C(C)(C)C)cc1)NCC(O)c1ccccc1 (configuration not stated)
growth inhibition [%]: 94

Lab note: CC[C@H]1CN2CC[C@H]1C[C@H]2[C@H](O)c1cc(-c2ccc(F)cc2)nc2ccc(OC)cc12 gave growth inhibition of 99

Lab note: CC(Cc1ccc(SCCSc2ccccc2)cc1)NCC(O)c1cccc(Cl)c1 (configuration not stated) gave growth inhibition of 98

Lab note: CC[C@H]1CN2CC[C@H]1C[C@H]2[C@H](O)c1cc(-c2ccc(OC(F)(F)F)cc2)nc2ccc(OC)cc12 gave growth inhibition of 98
